Target: Rat intestinal sucrase (Rattus norvegicus, UniProt P23739)
Construct: gene Si; native rat intestinal enzyme; sucrase (C-terminal) subunit of sucrase-isomaltase
Sequence (P23739 1014-1841 limits assumed): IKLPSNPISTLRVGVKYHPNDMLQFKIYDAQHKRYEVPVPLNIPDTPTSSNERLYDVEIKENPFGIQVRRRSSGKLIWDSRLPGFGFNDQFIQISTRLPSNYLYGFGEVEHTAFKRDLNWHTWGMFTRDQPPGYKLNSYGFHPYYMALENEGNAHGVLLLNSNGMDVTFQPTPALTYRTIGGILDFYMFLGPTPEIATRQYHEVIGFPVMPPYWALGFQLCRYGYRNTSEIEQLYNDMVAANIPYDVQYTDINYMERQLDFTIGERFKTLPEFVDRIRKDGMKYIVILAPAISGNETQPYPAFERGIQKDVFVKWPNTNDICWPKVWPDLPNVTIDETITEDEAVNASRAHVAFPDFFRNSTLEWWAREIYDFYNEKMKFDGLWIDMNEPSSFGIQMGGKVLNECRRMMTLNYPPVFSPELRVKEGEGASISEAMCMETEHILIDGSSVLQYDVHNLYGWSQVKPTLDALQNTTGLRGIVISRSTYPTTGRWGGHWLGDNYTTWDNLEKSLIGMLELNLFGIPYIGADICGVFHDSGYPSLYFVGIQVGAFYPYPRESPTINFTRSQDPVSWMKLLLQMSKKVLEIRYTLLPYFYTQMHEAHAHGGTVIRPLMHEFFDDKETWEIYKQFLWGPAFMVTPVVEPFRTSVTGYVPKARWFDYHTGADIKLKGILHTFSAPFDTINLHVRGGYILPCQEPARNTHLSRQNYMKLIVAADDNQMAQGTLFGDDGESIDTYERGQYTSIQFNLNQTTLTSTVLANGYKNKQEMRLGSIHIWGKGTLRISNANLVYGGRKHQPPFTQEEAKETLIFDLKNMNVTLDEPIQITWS
Experiment: enzyme inhibition assay
Format: biochemical
Details: read-out: IC50 ^a / MON-6d-DGJ

# Smiles Str, IC50
records = [
    ("COCCCCCCCCCN1C[C@H](O)[C@@H](O)[C@@H](O)[C@H]1C", "> 1.05 mM"),
]

###

Target: Human lysosome (α-glucosidase) (Homo sapiens, UniProt P10253)
Construct: gene GAA
Experiment: enzyme inhibition assay
Type: biochemical
Details: read-out: IC50 ^a / MON-6d-DGJ
pIC50: −log10 of the molar value.
Parameter: pIC50

# Smiles Str, Parameter, Value
records = [
    ("COCCCCCCCCCN1C[C@H](O)[C@@H](O)[C@@H](O)[C@H]1C", "pIC50", "< 2.98"),
]
